Known log10(GI50) of a selection of compounds
# System: IGROV-1
# assay-notes: Growth inhibition of human IGROV1 cells incubated for 48 hrs by sulforhodamine B assay
# Format: functional
# experimental-parameters: IGROV-1, 48 h
reported-endpoint: log10(GI50) (log10 of the value in µM)

compound=C=C1C(=O)O[C@@H]2[C@H]3O[C@]3(C)CC/C=C(/COC(=O)c3cc4cc(OC)ccc4[nH]3)CC[C@@H]12 observed_value=0.17
compound=C=C1C(=O)O[C@@H]2[C@H]3O[C@]3(C)CC/C=C(/COC(=O)c3cc4ccccc4o3)CC[C@@H]12 observed_value=0.14
compound="C=C1C(=O)O[C@@H]2C3O[C@]3(C)CC/C=C(\\C)CC[C@@H]12 (stereo partly specified)" observed_value=1.32
compound=C=C1C(=O)O[C@@H]2[C@H]3O[C@]3(C)CC/C=C(/COC(=O)c3cc4ccccc4s3)CC[C@@H]12 observed_value=0.25
compound=C=C1C(=O)O[C@@H]2[C@H]3O[C@]3(C)CC/C=C(/COC(=O)/C=C/c3c[nH]c4ccccc34)CC[C@@H]12 observed_value=-0.66
compound=C=C1C(=O)O[C@@H]2[C@H]3O[C@]3(C)CC/C=C(/COC(=O)c3c[nH]c4ccccc34)CC[C@@H]12 observed_value=-0.60
compound="CN(C)CC1C(=O)O[C@@H]2[C@H]3O[C@]3(C)CC/C=C(/COC(=O)c3cc4ccccc4[nH]3)CC[C@@H]12.O=C(O)/C=C/C(=O)O (stereo partly specified)" observed_value=0.32
compound=C=C1C(=O)O[C@@H]2[C@H]3O[C@]3(C)CC/C=C(/COC(=O)c3cc4cc(Cl)ccc4[nH]3)CC[C@@H]12 observed_value=0.14
compound=C=C1C(=O)O[C@@H]2[C@H]3O[C@]3(C)CC/C=C(/COC(=O)c3cn(C)c4ccccc34)CC[C@@H]12 observed_value=-0.16
compound=C=C1C(=O)O[C@@H]2[C@H]3O[C@]3(C)CC/C=C(/COC(=O)c3cc4cc(F)ccc4[nH]3)CC[C@@H]12 observed_value=0.16
compound=C=C1C(=O)O[C@@H]2[C@H]3O[C@]3(C)CC/C=C(/COC(=O)CCCc3c[nH]c4ccccc34)CC[C@@H]12 observed_value=0.21

---

# Tested on: K562
# assay-notes: Growth inhibition of human K562 cells incubated for 48 hrs by sulforhodamine B assay
# Assay type: functional
# experimental-parameters: K562, 48 h
reported-endpoint: GI50 (nM)

compound="CN(C)CC1C(=O)O[C@@H]2[C@H]3O[C@]3(C)CC/C=C(/COC(=O)c3cc4ccccc4[nH]3)CC[C@@H]12.O=C(O)/C=C/C(=O)O (some centres undefined)" assay_system=K562 reported_endpoint=GI50 observed_value=630
compound=C=C1C(=O)O[C@@H]2[C@H]3O[C@]3(C)CC/C=C(/COC(=O)c3cc4cc(F)ccc4[nH]3)CC[C@@H]12 assay_system=K562 reported_endpoint=GI50 observed_value=2240
compound=C=C1C(=O)O[C@@H]2[C@H]3O[C@]3(C)CC/C=C(/COC(=O)c3cc4ccccc4s3)CC[C@@H]12 assay_system=K562 reported_endpoint=GI50 observed_value=810
compound="C=C1C(=O)O[C@@H]2C3O[C@]3(C)CC/C=C(\\C)CC[C@@H]12 (some centres undefined)" assay_system=K562 reported_endpoint=GI50 observed_value=22600

---

# Tested on: SNB-19
# assay-notes: Growth inhibition of human SNB19 cells incubated for 48 hrs by sulforhodamine B assay
# Type: functional
# experimental-parameters: SNB-19, 48 h
Assign classes using reported GI50 values and the ranges category 1 (below 2000 nM), category 2 (2000 nM to below 3000 nM), category 3 (3000 nM or more), please.

compound=C=C1C(=O)O[C@@H]2[C@H]3O[C@]3(C)CC/C=C(/COC(=O)c3cc4ccccc4s3)CC[C@@H]12 assay_system=SNB-19 group="category 2"
compound=C=C1C(=O)O[C@@H]2[C@H]3O[C@]3(C)CC/C=C(/COC(=O)c3cc4ccccc4o3)CC[C@@H]12 assay_system=SNB-19 group="category 3"
compound=C=C1C(=O)O[C@@H]2[C@H]3O[C@]3(C)CC/C=C(/COC(=O)CCCc3c[nH]c4ccccc34)CC[C@@H]12 assay_system=SNB-19 group="category 2"
compound=C=C1C(=O)O[C@@H]2[C@H]3O[C@]3(C)CC/C=C(/COC(=O)c3cn(C)c4ccccc34)CC[C@@H]12 assay_system=SNB-19 group="category 1"
compound="C=C1C(=O)O[C@@H]2C3O[C@]3(C)CC/C=C(\\C)CC[C@@H]12 (some centres not stated)" assay_system=SNB-19 group="category 3"
compound=C=C1C(=O)O[C@@H]2[C@H]3O[C@]3(C)CC/C=C(/COC(=O)c3c[nH]c4ccccc34)CC[C@@H]12 assay_system=SNB-19 group="category 1"
compound="CN(C)CC1C(=O)O[C@@H]2[C@H]3O[C@]3(C)CC/C=C(/COC(=O)c3cc4ccccc4[nH]3)CC[C@@H]12.O=C(O)/C=C/C(=O)O (some centres not stated)" assay_system=SNB-19 group="category 3"
compound=C=C1C(=O)O[C@@H]2[C@H]3O[C@]3(C)CC/C=C(/COC(=O)/C=C/c3c[nH]c4ccccc34)CC[C@@H]12 assay_system=SNB-19 group="category 1"
compound=C=C1C(=O)O[C@@H]2[C@H]3O[C@]3(C)CC/C=C(/COC(=O)c3cc4ccccc4[nH]3)CC[C@@H]12 assay_system=SNB-19 group="category 1"
compound=C=C1C(=O)O[C@@H]2[C@H]3O[C@]3(C)CC/C=C(/COC(=O)c3cc4cc(F)ccc4[nH]3)CC[C@@H]12 assay_system=SNB-19 group="category 3"
compound=C=C1C(=O)O[C@@H]2[C@H]3O[C@]3(C)CC/C=C(/COC(=O)c3cc4cc(OC)ccc4[nH]3)CC[C@@H]12 assay_system=SNB-19 group="category 1"

---

Known GI50 of a selection of compounds
# Test system: MOLT-4
# assay-notes: Growth inhibition of human MOLT4 cells incubated for 48 hrs by sulforhodamine B assay
# Type: functional
# experimental-parameters: MOLT-4, 48 h
reported-endpoint: GI50

compound="CN(C)CC1C(=O)O[C@@H]2[C@H]3O[C@]3(C)CC/C=C(/COC(=O)c3cc4ccccc4[nH]3)CC[C@@H]12.O=C(O)/C=C/C(=O)O (some centres undefined)" assay_system=MOLT-4 observed_value="1510 nM"
compound=C=C1C(=O)O[C@@H]2[C@H]3O[C@]3(C)CC/C=C(/COC(=O)/C=C/c3c[nH]c4ccccc34)CC[C@@H]12 assay_system=MOLT-4 observed_value="300 nM"
compound=C=C1C(=O)O[C@@H]2[C@H]3O[C@]3(C)CC/C=C(/COC(=O)c3cc4ccccc4[nH]3)CC[C@@H]12 assay_system=MOLT-4 observed_value="1510 nM"
compound=C=C1C(=O)O[C@@H]2[C@H]3O[C@]3(C)CC/C=C(/COC(=O)c3cn(C)c4ccccc34)CC[C@@H]12 assay_system=MOLT-4 observed_value="570 nM"

---

Known GI50 of a selection of compounds
# Test system: MOLT-4
# assay-notes: Growth inhibition of human MOLT4 cells incubated for 48 hrs by sulforhodamine B assay
# Assay type: functional
# experimental-parameters: MOLT-4, 48 h
reported-endpoint: GI50 (nM)

compound=C=C1C(=O)O[C@@H]2[C@H]3O[C@]3(C)CC/C=C(/COC(=O)c3cc4ccccc4o3)CC[C@@H]12 reported_endpoint=GI50 observed_value=1770
compound=C=C1C(=O)O[C@@H]2[C@H]3O[C@]3(C)CC/C=C(/COC(=O)c3cc4cc(Cl)ccc4[nH]3)CC[C@@H]12 reported_endpoint=GI50 observed_value=550
compound=C=C1C(=O)O[C@@H]2[C@H]3O[C@]3(C)CC/C=C(/COC(=O)c3cc4cc(OC)ccc4[nH]3)CC[C@@H]12 reported_endpoint=GI50 observed_value=1320
compound="C=C1C(=O)O[C@@H]2C3O[C@]3(C)CC/C=C(\\C)CC[C@@H]12 (stereo partly drawn)" reported_endpoint=GI50 observed_value=14300
compound=C=C1C(=O)O[C@@H]2[C@H]3O[C@]3(C)CC/C=C(/COC(=O)CCCc3c[nH]c4ccccc34)CC[C@@H]12 reported_endpoint=GI50 observed_value=1530
compound=C=C1C(=O)O[C@@H]2[C@H]3O[C@]3(C)CC/C=C(/COC(=O)c3c[nH]c4ccccc34)CC[C@@H]12 reported_endpoint=GI50 observed_value=280
compound=C=C1C(=O)O[C@@H]2[C@H]3O[C@]3(C)CC/C=C(/COC(=O)c3cc4ccccc4s3)CC[C@@H]12 reported_endpoint=GI50 observed_value=1880
compound=C=C1C(=O)O[C@@H]2[C@H]3O[C@]3(C)CC/C=C(/COC(=O)c3cc4cc(F)ccc4[nH]3)CC[C@@H]12 reported_endpoint=GI50 observed_value=2260
